- method_summary: chemical genetic growth profiling, strain panel (AID 1159580);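 note: tested at 20 µM; growth read once vehicle control cultures reached saturation at 30 °C; 1 = growth at the plate median or of vehicle wells; lower values mean less growth of the strain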
- condition_info: S. cerevisiae deletion strains, growth OD, locus YPL241C, strain CIN2, hits give low values
In all, about 5,500 compounds went through this assay and about 2,000 (36%) were called active. Inconclusive results (about 18%) are left out. Some of the results follow.
test_readout: normalized growth
Number only, no unit.

# count of solved cases: 2
>  <molecule>
COc1cc2c(cc1OC)C1(O)C(=O)c3ccc(O)c(C(=O)O)c3OC1CO2 (stereo not drawn)

>  <assay_value>
0.983

$$$$
>  <molecule>
O=S(=O)(NCc1ccc2c(c1)OCO2)c1ccc(F)c(Cl)c1

>  <assay_value>
0.998

$$$$

Would you kindly look at the next entry?
Specify reported normalized growth for the molecule shown: O=c1cccc2n1CC1CC2CN2CCCC[C@@H]12 (stereo partly drawn)
0.994

----------
- method_summary: chemical genetic growth profiling, strain panel (AID 1159580)
- condition_info: S. cerevisiae deletion strains, growth OD, locus YJL187C, strain SWE1 (second series), hits give low values
Among all 5,500 compounds or so, about 2,000 (36%) were called active. Inconclusive results (about 18%) are left out. The list shows a part of the results.
Some compounds, each annotated with its measured normalized growth.
Number only, no unit.

Specify reported normalized growth for the compound shown: CC(=O)O[C@H]1C[C@@]2(C)[C@@H](C[C@@H](O)C3[C@]2(C)CC[C@H]2[C@H](C)[C@H](O)CC[C@]32C)/C1=C(/CCC=C(C)C)C(=O)O (some centres not stated)
1.01

Specify reported normalized growth for the compound shown: Cc1ccc(C(=O)c2ccc(CC(=O)O)n2C)cc1
1

Specify reported normalized growth for the compound shown: Cc1cc(CC(=O)O)n(C)c1C(=O)c1ccc(Cl)cc1
0.998

Specify reported normalized growth for the compound shown: NCCCNCCSP(=O)(O)O
0.99

Specify reported normalized growth for the compound shown: COC1=CC(=O)OC(CCc2ccc(OC)c(OC)c2)C1 (configuration not stated)
1.01

Specify reported normalized growth for the compound shown: COP(=S)(OC)Oc1ccc([N+](=O)[O-])cc1
0.983

Specify reported normalized growth for the compound shown: CC1(C)C(=O)[C@@H]2O[C@@H]2[C@@]2(C)C1C[C@@H](O)[C@]1(C)C2CC[C@@]2(C)[C@H](c3ccoc3)OC(=O)C3OC321 (some centres not stated)
0.984

----------
- method_summary: chemical genetic growth profiling, strain panel (AID 1159580)
- condition_info: S. cerevisiae deletion strains, growth OD, locus YNL128W, strain TEP1
Hit rate of the full screen: of about 5,500 compounds, about 2,000 (36%) were called active. Another 18% or so got no clear call; they are omitted. No stated cut-off is given here; in the data, active means normalized growth mostly below about 0.91 (no sharp cut-off); inconclusive means no clear call, values can overlap the other calls; inactive means mostly above about 0.92. The list shows a part of the results.
Response enum: Yes for active, No for inactive

>  <compound>
O=C(O)CCCCCCCC(=O)O

>  <assigned_category>
No

$$$$
>  <compound>
NC1(C(=O)O)CC1

>  <assigned_category>
No

$$$$
>  <compound>
FC(F)(F)c1ccc2[nH]c(=S)[nH]c2c1

>  <assigned_category>
No

$$$$
>  <compound>
COC(=O)/C(C)=C\CC12OC(C)(C)C3CC(C=C4C(=O)c5c(OC)c6c(c(CC=C(C)C)c5OC431)OC(C)(CCC=C(C)C)C=C6)C2=O (stereo not given)

>  <assigned_category>
No

$$$$
>  <compound>
C[C@]12CC[C@H]3[C@@H](CCC4C[C@H](O)CC[C@@]43C)[C@@H]1CC[C@@H]2O (stereo not given in full)

>  <assigned_category>
No

$$$$

Hi, do you know how O=S(=O)(NCc1ccc2c(c1)OCO2)c1ccc(F)c(Cl)c1 came out in this test?
No

Hi, do you know how CN=C(N)NCCCC(N)C(=O)O (stereo not given) came out in this test?
No

Hi, do you know how CC12CCC3C(=CCc4cc(O)ccc43)C1CCC2=O (stereo not given) came out in this test?
No

----------
- method_summary: chemical genetic growth profiling, strain panel (AID 1159580);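 note: tested at 20 µM; growth read once vehicle control cultures reached saturation at 30 °C; 1 = growth at the plate median or of vehicle wells; lower values mean less growth of the strain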
- condition_info: S. cerevisiae deletion strains, growth OD, locus YGR135W, strain pre9, hits give low values
Among all 5,500 compounds or so, about 2,000 (36%) were called active. About 18% were inconclusive and are not listed. This is one part of the list.
Some molecules, each annotated with its measured normalized growth.
Number only, no unit.

# count of solved cases: 2
>  <molecule>
Cc1oncc1C(=O)Nc1ccc(C(F)(F)F)cc1

>  <assay_value>
1

$$$$
>  <molecule>
C[C@]12C=CC(=O)C=C1CCC1C2[C@@H](O)C[C@@]2(C)C1CC[C@]2(O)C(=O)CO (stereo partly drawn)

>  <assay_value>
0.995

$$$$

Specify reported normalized growth for the molecule shown: CC1OC(O[C@H]2/C=C/C=C/C=C/C=C/C=C/C=C/C=C/[C@H](C)[C@@H](O)[C@@H](C)[C@H](C)OC(=O)CC(O)CC(O)CCC(O)C(O)CC(O)C[C@]3(O)C[C@H](O)C(C(=O)O)C(C2)O3)C(O)[C@H](N)C1O (stereo partly drawn)
0.997

----------
Some molecules, each annotated with its measured normalized growth.
- method_summary: chemical genetic growth profiling, strain panel (AID 1159580);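 note: tested at 20 µM; growth read once vehicle control cultures reached saturation at 30 °C; 1 = growth at the plate median or of vehicle wells; lower values mean less growth of the strain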
- condition_info: S. cerevisiae deletion strains, growth OD, locus YJR075W, strain HOC1, hits give low values
In all, about 5,500 compounds went through this assay and about 2,000 (36%) were called active. Roughly 18% stayed inconclusive and do not appear here. Some of the results follow.
Number only, no unit.

# count of solved cases: 10
>  <molecule>
C[C@]12C=CC(=O)C=C1CCC1C2[C@@H](O)C[C@@]2(C)C1CC[C@]2(O)C(=O)CO (some centres undefined)

>  <normalized growth>
0.993

$$$$
>  <molecule>
Cc1cc2c3c(c1)c(O)cc(=O)n3CCC2

>  <normalized growth>
1

$$$$
>  <molecule>
Cn1c(=S)[nH]c2cc(C(F)(F)F)ccc21

>  <normalized growth>
1.02

$$$$
>  <molecule>
FC(F)(F)c1ccc2[nH]c(=S)[nH]c2c1

>  <normalized growth>
1.01

$$$$
>  <molecule>
C1N2CN3CN1CN(C2)C3

>  <normalized growth>
0.986

$$$$
>  <molecule>
CC(N)c1cccc(Cl)c1Cl (centres undefined)

>  <normalized growth>
1.02

$$$$
>  <molecule>
CC(=O)c1ccc(N2C(=O)CSCC2=O)cc1

>  <normalized growth>
1.02

$$$$
>  <molecule>
NC(=O)NC1NC(=O)NC1=O (centres undefined)

>  <normalized growth>
1.01

$$$$
>  <molecule>
COc1ccc2c(c1)OCC(Cc1ccc(OC)c(OC(C)=O)c1)C2=O (centres undefined)

>  <normalized growth>
0.983

$$$$
>  <molecule>
CC(C)/C(O)=C1/C(=O)O[C@@H](c2ccoc2)[C@]2(C)C(O)[C@@H](O)[C@@]34OC5(C)OC67CC(C)(C(O)[C@]6(O)[C@@H](O)[C@]3(O5)C12)[C@H](CC(=O)O)[C@]74C (some centres undefined)

>  <normalized growth>
1

$$$$

Specify reported normalized growth for the molecule shown: NCC[C@@H](O)C(=O)N[C@@H]1C[C@H](N)[C@@H](O[C@H]2O[C@H](CN)[C@@H](O)[C@H](O)[C@H]2O)[C@H](O)[C@H]1O[C@H]1O[C@H](CO)[C@@H](O)[C@H](N)C1O (some centres undefined)
0.995

Specify reported normalized growth for the molecule shown: O=C1c2ccccc2C2(c3ccccc3)NCCN12 (centres undefined)
1.01

Specify reported normalized growth for the molecule shown: Nc1ccc(CCNc2ncnc3c2ncn3C2OC(CO)C(O)C2O)cc1 (centres undefined)
1

Specify reported normalized growth for the molecule shown: Clc1ccc(C(c2ccccc2Cl)C(Cl)Cl)cc1 (centres undefined)
1

----------
Some compounds, each annotated with its measured normalized growth.
- method_summary: chemical genetic growth profiling, strain panel (AID 1159580);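 note: tested at 20 µM; growth read once vehicle control cultures reached saturation at 30 °C; 1 = growth at the plate median or of vehicle wells; lower values mean less growth of the strain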
- condition_info: S. cerevisiae deletion strains, growth OD, locus YKL160W, strain elf1, hits give low values
The whole screen tested about 5,500 compounds, of which about 2,000 (36%) were called active. Not shown: some 18% with an inconclusive outcome. The list shows a part of the results.
Number only, no unit.

>  <compound>
Clc1ccccc1CN1CCc2sccc2C1

>  <normalized growth>
0.987

$$$$
>  <compound>
COc1ccc(-c2oc3cc(OC)c(OC)c(OC)c3c(=O)c2OC)cc1OC

>  <normalized growth>
0.998

$$$$

Specify reported normalized growth for the compound shown: CCC(C)C(=O)c1c(O)c(C)c2oc3c(C)c(O)c(C(=O)C(C)CC)c(O)c3c2c1O (centres undefined)
0.979

Specify reported normalized growth for the compound shown: COc1ccc2c(c1)OCC(Cc1ccc(OC)c(OC(C)=O)c1)C2=O (centres undefined)
0.98

Specify reported normalized growth for the compound shown: O=C(O)C(O)C(O)C(=O)O (centres undefined)
1.01

Specify reported normalized growth for the compound shown: COc1ccc2c(c1)OCC(Cc1ccc(OC)c(OC)c1)C2=O (centres undefined)
0.955

Specify reported normalized growth for the compound shown: O=C(O)[C@@H](S)[C@@H](S)C(=O)O
0.974

Specify reported normalized growth for the compound shown: Cc1cc(CC(=O)O)n(C)c1C(=O)c1ccc(Cl)cc1
1.05

Specify reported normalized growth for the compound shown: CC(C)(S)[C@@H](N)C(=O)O
1.03

Specify reported normalized growth for the compound shown: C=NC(C(=O)NC1C(=O)N2C1SC(C)(C)C2C(=O)O)c1ccccc1 (centres undefined)
0.98
